System: Sodium/Iodide Symporter (NIS), SLC5A5 (gene 6528)
Assay protocol: CPHEA_Stoker_NIS_Inhibition_RAIU: CPHEA's Radioactive Iodide Uptake (RAIU) Assay for Sodium/Iodide Symporter (NIS) Inhibition, Stoker and Laws Labs (AID 2283841)
Inconclusive results are not listed. The source made the active and inactive calls. How the source made its calls: active means hit-call score of the fitted dose curve at least 0.9, where 1 is the maximum; inconclusive means response in the unintended direction; inactive means score below 0.9.
Measure: AC50

get_value(item= O=C(O)C(F)(F)OC(F)(F)C(F)(F)OC(F)(F)C(F)(F)OC(F)(F)C(F)(F)C(F)(F)C(F)(F)F , readout=AC50) returns inactive

Notebook: NCCN , AC50 read as 4.18 µM (active)

AC50 reported for this compound O=C(O)C(=O)O : inactive

###

Read-out: ABC Transporter (ABCB1), ABCB1 (gene 5243)
Assay protocol: LTEA_HepaRG_ABCB1: Life Technologies and Expression Analysis (LTEA) Assay for ABC Transporter (ABCB1) using HepaRG (AID 2283460)
Recorded conditions: mRNA level, 48 h; actives raise or lower the signal
Calls of active or inactive are those of the source. How the source made its calls: active means hit-call score of the fitted dose curve at least 0.9, where 1 is the maximum; inactive means score below 0.9.
Pick one: active, inactive

Some solved entries appear below for comparison.
(Q) For CCCCCCCCCCCCCCC , what call appears in the results of this test?
(A) inactive

(Q) Could you kindly confirm the outcome this assay logged for CCCCC=O ?
(A) inactive

(Q) Just curious, what result did CC(=O)Nc1ccc(O)cc1 get here?
(A) inactive

(Q) Per the assay record, what outcome was assigned to CN(C)CCOC(c1ccccc1)c1ccccc1 ?
(A) inactive

(Q) Would you mind telling me which call this test gave CCCCC(CC)C(=O)O (stereo unspecified) ?
(A) inactive

---
(Q) Recorded test outcome, item N=C(N)c1ccc(OCCCCCOc2ccc(C(=N)N)cc2)cc1
(A) active

(Q) What was the test verdict on O=C(CCCN1CCC(O)(c2ccc(Cl)cc2)CC1)c1ccc(F)cc1 ?
(A) active

###

System: Thyroperoxidase (TPO), gene 54314
Assay protocol: CCTE_Simmons_AUR_rTPO: CCTE's Amplex UltraRed Assay for Thyroperoxidase (TPO) Inhibition, Simmons Lab (AID 2283662)
The source made the active and inactive calls. The calls were made as follows: active = hit-call score of the fitted dose curve at least 0.9, where 1 is the maximum; inconclusive = response in the unintended direction; inactive = score below 0.9.
// allowed return values: yes = active, no = inactive

Recorded results for 4 compounds are shown here.
(Q) Hey, what did the test say about C[C@]12CC[C@@H]3c4ccc(O)cc4CC[C@H]3[C@@H]1C[C@@H](O)[C@@H]2O ?
(A) yes

(Q) Tell me the assay call for NC(=NCCCCCCN=C(N)/N=C(\N)Nc1ccc(Cl)cc1)/N=C(\N)Nc1ccc(Cl)cc1 please.
(A) no

(Q) Tell me the assay call for Cc1cc(Cc2cc(C)cc(C(C)(C)C)c2O)c(O)c(C(C)(C)C)c1 please.
(A) yes

(Q) For CCCCCCCCCCCCOC(=O)c1cc(O)c(O)c(O)c1 , what call appears in the results of this test?
(A) yes

Next:
(Q) Tell me the recorded outcome of this test for CCCCCCCCCCCC .
(A) yes

(Q) Just curious, what result did CCc1cccc(CC)c1N(COC)C(=O)CS(=O)(=O)O get here?
(A) no

###

Assay protocol: ATG_PPRE_CIS: Attagene CIS-FACTORIAL HepG2 Assay for human Peroxisome Proliferator-activated Response Element (PPRE) (AID 2282958)
Recorded conditions: HepG2 PPRE cis-element reporter, Attagene transcription factor profiling; actives raise or lower the signal
Calls of active or inactive are those of the source. The calls were made as follows: active = hit-call score of the fitted dose curve at least 0.9, where 1 is the maximum; inactive = score below 0.9.
Parameter call: string, one of class 1 (active), class 0 (inactive)

Here's what some known entries look like.
(Q) // return assay outcome for Oc1c(Cl)ccc(Cl)c1Cl
(A) class 1

(Q) Recorded test call requested for O=C(NCc1ncc(C(F)(F)F)cc1Cl)c1c(Cl)cccc1Cl
(A) class 0

(Q) Record request — test call for FC(F)(F)N1C(F)(F)C(F)(F)OC(F)(F)C1(F)F
(A) class 0

(Q) Lab log entry: CC=O — outcome as called in the assay?
(A) class 0

(Q) Per the records of this test, what outcome belongs to Cc1ccccc1C(OCCN(C)C)c1ccccc1 (configuration not stated) ?
(A) class 0

(Q) Lab log entry: NNc1nc(-c2ccc([N+](=O)[O-])cc2)cs1 — outcome as called in the assay?
(A) class 0

Below: the item to evaluate.
(Q) For this compound, state the assay outcome: O=c1cc(-c2ccccc2)oc2ccc3ccccc3c12
(A) class 0

###

Read-out: Cyclin Dependent Kinase Inhibitor 1A (CDKN1A), CDKN1A (gene 1026)
Assay protocol: LTEA_HepaRG_CDKN1A: Life Technologies and Expression Analysis (LTEA) Assay for Cyclin Dependent Kinase Inhibitor 1A (CDKN1A) using HepaRG (AID 2283450)
Recorded conditions: mRNA level, 48 h; actives raise or lower the signal
Active and inactive are the calls of the source. Rule for the calls: active = hit-call score of the fitted dose curve at least 0.9, where 1 is the maximum; inactive = score below 0.9.
Respond only with the outcome that fits, drawn from active, inactive

Check out these entries, answers already filled in.
(Q) Record request — test call for N=C(N)c1ccc(OCCCCCOc2ccc(C(=N)N)cc2)cc1
(A) active

(Q) Which outcome did this test record for the molecule CCC(C)c1ccccc1O (configuration not stated) ?
(A) inactive

Further cases:
(Q) Hi, sorry to bother you, what did the test record for CCCCC=O ?
(A) inactive

(Q) Recorded call for CCCCCCCCCCCCCCC ?
(A) inactive

###

Read-out: Interleukin-8 (IL8), CXCL8 (gene 3576)
Assay protocol: BSK_SAg_IL8: BioMAP Diversity Plus: SAg Assay for Interleukin-8 (IL8) Biomarker Activity (AID 2283094)
Recorded conditions: primary human HUVEC with PBMC; actives raise or lower the signal
Description: BSK_SAg is a cell-based, multiplexed-readout assay that uses umbilical vein endothelium and peripheral blood mononuclear cells, a human vascular primary cell co-culture, with measurements taken at 24 hours after chemical dosing in a 96-well plate.BSK_SAg_IL8 is an assay component measured in the BSK_SAg assay. It measures IL-8 antibody related to regulation of gene expression using ELISA technology.Data from the assay component BSK_SAg_IL8 was analyzed into 1 assay endpoint. […]
The source made the active and inactive calls. How the source made its calls: active means hit-call score of the fitted dose curve at least 0.9, where 1 is the maximum; inactive means score below 0.9.
Measure: AC50

Solved entries:
Please fill in: AC50 reported for CCCCCCCCCCCCOS(=O)(=O)O = inactive

Memo: N=C(N)c1ccc(OCCCCCOc2ccc(C(=N)N)cc2)cc1 , reported AC50: 6.91 µM (active)

// OCCN1CN(CCO)CN(CCO)C1 : AC50 value = 13.1 µM (active)

Note to self: AC50 recorded for C=CC(=O)OCCC(F)(F)C(F)(F)C(F)(F)C(F)(F)C(F)(F)C(F)(F)C(F)(F)C(F)(F)F was inactive

Lookup result for O=C(NO)c1ccccc1 ; measured AC50: inactive

---
Recorded AC50 (molecule COc1cccc(O)c1 ): inactive

Input O=C(CCCN1CCC(O)(c2ccc(Cl)cc2)CC1)c1ccc(F)cc1 . Output AC50: inactive

So, OCC(F)(F)C(F)(F)C(F)(F)C(F)(F)C(F)(F)C(F)(F)C(F)(F)C(F)(F)C(F)(F)C(F)(F)C(F)(F)F ? Its AC50 was inactive

###

Read-out: Monokine induced gamma interferon (MIG), CXCL9 (gene 4283)
Assay protocol: BSK_SAg_MIG: BioMAP Diversity Plus: SAg Assay for Monokine induced gamma interferon (MIG) Biomarker Activity (AID 2283092)
Recorded conditions: primary human HUVEC with PBMC; actives raise or lower the signal
Active and inactive are the calls of the source. Rule for the calls: active = hit-call score of the fitted dose curve at least 0.9, where 1 is the maximum; inactive = score below 0.9.
Give one outcome, nothing more. List: Y for active, N for inactive

These recorded examples may help you get a feel for the data.
(Q) For this compound, state the assay outcome: C=CC(=C)CC/C=C(\C)CCC=C(C)C
(A) N

(Q) Assay outcome for O=C1NS(=O)(=O)c2ccccc21 : what was it?
(A) N

(Q) Which result was noted for this compound in the test: CCCCCc1ccc(O)cc1
(A) Y

(Q) So what was the verdict on CCCCCCCCCCCCCCCCCC[N+](C)(C)Cc1ccccc1 in this test?
(A) Y

(Q) Please state the recorded outcome for this compound: CN(Cc1cnc2nc(N)nc(N)c2n1)c1ccc(C(=O)N[C@@H](CCC(=O)O)C(=O)O)cc1
(A) N

(Q) Hello, I am checking results. What call was entered for O=C1OC2(c3ccccc31)c1cc(I)c(O)c(I)c1Oc1c2cc(I)c(O)c1I ?
(A) N

(Q) Tell me the recorded outcome of this test for COc1cccc(O)c1 .
(A) N

(Q) What did the test return for O=C(c1ccccc1)c1ccccc1 ?
(A) N

(Q) In this assay, the call recorded for CCCCCCCCCCCC was what?
(A) N

(Q) Assay result, entry Oc1cc2ccccc2cc1O — outcome?
(A) N

More entries:
(Q) Tell me the recorded outcome of this test for COc1cc(OC)nc(NC(=O)NS(=O)(=O)Nc2ccccc2C(=O)N(C)C)n1 .
(A) N

(Q) Identify the outcome logged in this assay for the compound shown: CCCCc1oc2ccccc2c1C(=O)c1cc(I)c(OCCN(CC)CC)c(I)c1
(A) Y

(Q) Status in this test for CCCCC(CC)C(=O)O (stereo not drawn) ?
(A) N

###

System under test: Hypoxia-inducible factor 1-alpha (Homo sapiens) (UniProt Q16665)
Sequence (Q16665 whole entry, looked up): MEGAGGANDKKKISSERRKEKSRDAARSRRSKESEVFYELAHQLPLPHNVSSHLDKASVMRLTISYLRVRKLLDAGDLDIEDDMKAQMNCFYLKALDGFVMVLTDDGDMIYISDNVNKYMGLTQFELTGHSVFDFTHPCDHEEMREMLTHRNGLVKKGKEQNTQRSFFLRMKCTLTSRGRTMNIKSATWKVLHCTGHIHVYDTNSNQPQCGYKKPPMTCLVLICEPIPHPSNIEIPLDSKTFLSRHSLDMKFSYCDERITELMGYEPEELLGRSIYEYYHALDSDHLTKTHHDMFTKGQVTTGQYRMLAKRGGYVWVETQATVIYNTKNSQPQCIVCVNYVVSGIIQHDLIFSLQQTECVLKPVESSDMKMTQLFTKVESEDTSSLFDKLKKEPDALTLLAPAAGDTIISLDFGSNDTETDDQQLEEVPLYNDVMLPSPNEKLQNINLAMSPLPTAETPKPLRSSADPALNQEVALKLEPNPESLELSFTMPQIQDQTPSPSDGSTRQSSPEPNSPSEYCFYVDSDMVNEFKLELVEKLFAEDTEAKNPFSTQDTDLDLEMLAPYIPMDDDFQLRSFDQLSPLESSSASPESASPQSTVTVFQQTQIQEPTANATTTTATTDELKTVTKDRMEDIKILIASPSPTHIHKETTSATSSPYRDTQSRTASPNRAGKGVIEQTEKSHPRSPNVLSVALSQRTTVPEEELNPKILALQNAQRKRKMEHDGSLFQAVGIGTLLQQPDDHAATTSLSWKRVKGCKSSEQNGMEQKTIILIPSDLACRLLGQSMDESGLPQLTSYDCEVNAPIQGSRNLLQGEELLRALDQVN
Assay protocol: ATG_HIF1a_CIS: Attagene CIS-FACTORIAL HepG2 Assay for human Hypoxia Inducible Factor 1 (HIF1A) (AID 2282951)
Recorded conditions: HepG2 Attagene cis-factorial HIF1a reporter transcription; actives raise or lower the signal
Calls of active or inactive are those of the source. How the source made its calls: active means hit-call score of the fitted dose curve at least 0.9, where 1 is the maximum; inactive means score below 0.9.
Assign a class; possible classes are active, inactive

# example entries with known answers
(Q) Write down the call the test reported for this molecule. Item: FCOC(C(F)(F)F)C(F)(F)F
(A) inactive

(Q) Entry NCc1cccc(CN)c1 : call = ?
(A) active

---
(Q) Given CC1COCc2cc3c(cc21)C(C)(C)C(C)C3(C)C (stereo not given) , state the outcome it received in this test.
(A) inactive

(Q) Test call for this molecule, please: CCN(CCC#N)c1ccccc1
(A) inactive

(Q) Test call for this molecule, please: Nc1ccc(O)c(C(=O)O)c1
(A) inactive

Sourced from PubChem BioAssay (EPA / NIEHS)
